These data points were gathered from the RNAGym collection of RNA variant scans (doi:10.1073/pnas.2313332121).

B1: TPR 5TU (parent)
chain: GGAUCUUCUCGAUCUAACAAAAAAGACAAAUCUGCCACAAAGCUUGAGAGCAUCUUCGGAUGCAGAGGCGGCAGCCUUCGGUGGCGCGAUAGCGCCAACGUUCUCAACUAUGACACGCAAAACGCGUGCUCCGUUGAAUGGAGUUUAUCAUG

# Variants of: B1
# Experiment description: polymerase ribozyme fitness, log enrichment relative to wild type (log ratio); higher = more active; in vitro selection for triplet polymerase activity
This sample holds only a part of the variants without activity.
What polymerase ribozyme fitness (log ratio) was measured for each of the following?
Numbers only.

// solved cases for polymerase ribozyme fitness (log ratio) follow
U82A C95A A97C C103U U134A
-3.46
G81C
-0.471
U6G G128U
-3.77
A24G G86U
-3.77
C87U C103U
-0.658
A12G C54G C116U
-0.574

I'm hoping you can list polymerase ribozyme fitness (log ratio) for every variant here, please.
1. G84A C95G
2. A39U A89G G126U
3. A39G A97U

[-0.784, -3.58, -2.96]

I'm hoping you can list polymerase ribozyme fitness (log ratio) for every variant here, please.
1. C85U U101G C105A U109G A110G
2. G83A G117C U145G
3. A39G C57A C99G
4. A16G G94A U104A
5. C8U G83C

1. -4.19
2. -1.38
3. -3.15
4. -0.709
5. -2.8

I'm hoping you can list polymerase ribozyme fitness (log ratio) for every variant here, please.
1. A40C A89U
2. A3U C51U U56G G58C G59A A73G
3. U9G
4. C85U A89G
5. C38U C63U A73G C87U
6. G84A C118U G141A
7. U55C A73U A97U U144G

[0.433, -3.64, -2.82, -2.67, -0.21, 0.213, -1.48]

I'm hoping you can list polymerase ribozyme fitness (log ratio) for every variant here, please.
1. A52G G67U A142G
2. A20U U31C A41C C51A
3. C131A

[-3.52, -2.21, -1.77]
